Field: normalized RNA/DNA level with ligand (log10). Provide a value for each of the variants that follow.
B1: library; a variant is named by its letters at N, in order (parent)
chain: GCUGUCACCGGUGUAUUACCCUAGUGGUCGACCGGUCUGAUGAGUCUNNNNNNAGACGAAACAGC

Variants of: B1
procedure details: normalized RNA/DNA level with ligand (relative to sTRSVctl = 100) (log10 (% of sTRSVctl)); ligand: hypoxanthine (xanthine aptamer); higher = less ribozyme self-cleavage, higher mRNA level
cond: ligand concentration (+) RNA-Seq: 5 mM, HEK293T, reporter: mCherry (pCS4076), ligand present: yes
Hey, just send me the number, nothing else.

Would you kindly share the measured normalized RNA/DNA level with ligand (log10) for `UCCGCU` ?
1.94

State the recorded normalized RNA/DNA level with ligand (log10) for this entry: `GACUGA`
1.94

# get_value(readout='normalized RNA/DNA level with ligand (log10)', item= `UCUAGC` )
1.95

Please look up its normalized RNA/DNA level with ligand (log10): `GCGACA`
1.89

Name the recorded normalized RNA/DNA level with ligand (log10) for `UUAGAU` .
1.93

What normalized RNA/DNA level with ligand (log10) value was documented for this variant, `AAGCUG` ?
1.72

Suppose we examine the variant `CGGUGU` ; what normalized RNA/DNA level with ligand (log10) value has been reported?
1.96

Quick check: normalized RNA/DNA level with ligand (log10) of `CUGACC` ?
1.99

Which normalized RNA/DNA level with ligand (log10) reading was recorded for the variant `GAAUGU` ?
1.91

Entry under review: `UGGAGA` . Reported normalized RNA/DNA level with ligand (log10)?
1.79

Look up normalized RNA/DNA level with ligand (log10): `UGCAUA`
1.96

I'd like to know its normalized RNA/DNA level with ligand (log10). The variant in question is `AGAAGG`
1.85

Using the record for `AGAAUU` , report its normalized RNA/DNA level with ligand (log10).
1.93

normalized RNA/DNA level with ligand (log10) lookup needed for `UGCUCC` , thanks.
1.97

Report normalized RNA/DNA level with ligand (log10) for `AAUGGC` please.
1.93

Item under review: `UGCAGA` . Reported normalized RNA/DNA level with ligand (log10)?
1.84

Quick check: normalized RNA/DNA level with ligand (log10) of `UGACUG` ?
1.91

I would be grateful if you could share the reported normalized RNA/DNA level with ligand (log10) for `UUGGCG` .
2.01

Would you kindly share the measured normalized RNA/DNA level with ligand (log10) for `CAGUGA` ?
1.89

Report normalized RNA/DNA level with ligand (log10) for `UAUGGG` please.
1.86

Reported normalized RNA/DNA level with ligand (log10), variant `GACUUA` : ____
1.88

Bench note: what normalized RNA/DNA level with ligand (log10) did `AUUCCU` show?
1.92

Suppose we examine the variant `GCGUAG` ; what normalized RNA/DNA level with ligand (log10) value has been reported?
1.57

Item under review: `UCAUCG` . Reported normalized RNA/DNA level with ligand (log10)?
1.99

Recorded normalized RNA/DNA level with ligand (log10) of `UGAGAA` , please.
1.86

Param item = `UGGACC` ; retrieve measured normalized RNA/DNA level with ligand (log10).
1.98

Param item = `CAGAAG` ; retrieve measured normalized RNA/DNA level with ligand (log10).
1.9

Need normalized RNA/DNA level with ligand (log10) of `GUCGUC` , thanks.
2.03

Which normalized RNA/DNA level with ligand (log10) value is on record for `CUCAAU` ?
1.92

Which normalized RNA/DNA level with ligand (log10) is listed for `AGCGCU` ?
1.93

Need normalized RNA/DNA level with ligand (log10), item `AAUAUA`
1.89

Entry `GACGAG` has what normalized RNA/DNA level with ligand (log10)?
1.76

Look up normalized RNA/DNA level with ligand (log10) for this variant: `AGGACA`
1.89

normalized RNA/DNA level with ligand (log10) lookup needed for `CCCACU` , thanks.
1.96

Reported normalized RNA/DNA level with ligand (log10), variant `AGGCCG` : ____
1.89

GET /values?readout=normalized RNA/DNA level with ligand (log10)&item= `UGAUGC`
1.95

Can you share its normalized RNA/DNA level with ligand (log10)? I mean this variant: `UCUAGG`
1.96

Give the measured normalized RNA/DNA level with ligand (log10) of `AGGCGC` .
1.96

Suppose we examine the variant `GGCUGA` ; what normalized RNA/DNA level with ligand (log10) value has been reported?
2.01

Which normalized RNA/DNA level with ligand (log10) is listed for `AAACUC` ?
1.95

Look up normalized RNA/DNA level with ligand (log10) for this variant: `ACAGGA`
1.91

What measured normalized RNA/DNA level with ligand (log10) goes with `AACUAU` ?
1.9

Look at this variant and give its reported normalized RNA/DNA level with ligand (log10). `CCCAGG`
1.93

Could you share which normalized RNA/DNA level with ligand (log10) value was measured for `AUAGCC` ?
1.94

Record request: normalized RNA/DNA level with ligand (log10) value, item `AUGCUA`
1.97

Query: normalized RNA/DNA level with ligand (log10); subject: `GCUCGA`
1.92

# get_value(readout='normalized RNA/DNA level with ligand (log10)', item= `AGGACC` )
1.94

Report normalized RNA/DNA level with ligand (log10) for `UGUAUG` please.
1.91

# get_value(readout='normalized RNA/DNA level with ligand (log10)', item= `UUCCGG` )
1.98

Item `UGGAAA` has what recorded normalized RNA/DNA level with ligand (log10)?
1.91

# input variant: `CAUUUC` ; wanted: its normalized RNA/DNA level with ligand (log10)
1.92

Field request: normalized RNA/DNA level with ligand (log10) | item: `ACGCAC`
1.89

Query (variant): `CAGGUU` ; field requested: normalized RNA/DNA level with ligand (log10)
1.97

Reported normalized RNA/DNA level with ligand (log10) for `CGGGAG` : what is it?
1.87

I would be grateful if you could share the reported normalized RNA/DNA level with ligand (log10) for `GAUUUA` .
1.89

Which value of normalized RNA/DNA level with ligand (log10) has been reported for `CAUCCC` in the records?
1.94

Tell me the measured normalized RNA/DNA level with ligand (log10) of `AAGGGC` , please.
1.91

Value lookup for normalized RNA/DNA level with ligand (log10); key = `AGAAUG`
1.86

Please report the recorded normalized RNA/DNA level with ligand (log10) for `UUCGUA` .
1.93

Consider the variant `GUCAUA` and give its measured normalized RNA/DNA level with ligand (log10).
1.96

What value of normalized RNA/DNA level with ligand (log10) has been reported for the following variant? `GCGCCU`
2

Suppose we examine the variant `AUUACU` ; what normalized RNA/DNA level with ligand (log10) value has been reported?
1.96

For the variant `GACCAG` , what normalized RNA/DNA level with ligand (log10) is on record?
1.87

Which normalized RNA/DNA level with ligand (log10) value is on record for `GCUCUU` ?
1.97

Name the reported normalized RNA/DNA level with ligand (log10) value associated with the variant `GCGUCU`
1.98

I would be grateful if you could share the reported normalized RNA/DNA level with ligand (log10) for `AUUGUU` .
1.93

Look up normalized RNA/DNA level with ligand (log10): `CAUCUC`
1.96

Recorded normalized RNA/DNA level with ligand (log10) for `AACCGU` , please?
1.89

Need normalized RNA/DNA level with ligand (log10) of `UGCUAU` , thanks.
1.93

Fill in: normalized RNA/DNA level with ligand (log10) of `CGGCUG` is ___
1.97

For the variant shown here, `AAUAUU` , give the reported normalized RNA/DNA level with ligand (log10).
1.93

Fill in: normalized RNA/DNA level with ligand (log10) of `CGUAGC` is ___
1.95

# get_value(readout='normalized RNA/DNA level with ligand (log10)', item= `UCGGGC` )
2.02

Requested read-out: normalized RNA/DNA level with ligand (log10). Entry: `CCCUGG`
1.91

# query: normalized RNA/DNA level with ligand (log10) of entry `AGAGCC`
1.96

If you can, please state the reported normalized RNA/DNA level with ligand (log10) value of `AUCCUG` .
1.94

Suppose we examine the variant `UGACCC` ; what normalized RNA/DNA level with ligand (log10) value has been reported?
2

Using the record for `UGCCCA` , report its normalized RNA/DNA level with ligand (log10).
1.94

Entry `CGUUAU` has what normalized RNA/DNA level with ligand (log10)?
1.92

Would you mind telling me what normalized RNA/DNA level with ligand (log10) value was observed for `GCUUUG` ?
1.91

Quick one: normalized RNA/DNA level with ligand (log10) of `ACUAAC` ?
1.95

// normalized RNA/DNA level with ligand (log10) lookup, key: `CCCCAU`
1.93

Record request: normalized RNA/DNA level with ligand (log10) value, item `UUUCAA`
1.93

Which normalized RNA/DNA level with ligand (log10) value is on record for `UCGAAA` ?
1.86

normalized RNA/DNA level with ligand (log10) lookup needed for `CUGUCA` , thanks.
2

Give the measured normalized RNA/DNA level with ligand (log10) of `ACGUUC` .
1.94

normalized RNA/DNA level with ligand (log10) for `UUGUAC` ?
2

Report normalized RNA/DNA level with ligand (log10) for `UGUCCG` please.
1.93

What value of measured normalized RNA/DNA level with ligand (log10) is listed for `UGUUGA` ?
1.9

Need normalized RNA/DNA level with ligand (log10) of `GCAUCA` , thanks.
1.94

Find the recorded normalized RNA/DNA level with ligand (log10) belonging to `CCAGGC` and report it.
1.97
